# study-system: UniProt:Q08881
# Sequence (Q08881 1-620): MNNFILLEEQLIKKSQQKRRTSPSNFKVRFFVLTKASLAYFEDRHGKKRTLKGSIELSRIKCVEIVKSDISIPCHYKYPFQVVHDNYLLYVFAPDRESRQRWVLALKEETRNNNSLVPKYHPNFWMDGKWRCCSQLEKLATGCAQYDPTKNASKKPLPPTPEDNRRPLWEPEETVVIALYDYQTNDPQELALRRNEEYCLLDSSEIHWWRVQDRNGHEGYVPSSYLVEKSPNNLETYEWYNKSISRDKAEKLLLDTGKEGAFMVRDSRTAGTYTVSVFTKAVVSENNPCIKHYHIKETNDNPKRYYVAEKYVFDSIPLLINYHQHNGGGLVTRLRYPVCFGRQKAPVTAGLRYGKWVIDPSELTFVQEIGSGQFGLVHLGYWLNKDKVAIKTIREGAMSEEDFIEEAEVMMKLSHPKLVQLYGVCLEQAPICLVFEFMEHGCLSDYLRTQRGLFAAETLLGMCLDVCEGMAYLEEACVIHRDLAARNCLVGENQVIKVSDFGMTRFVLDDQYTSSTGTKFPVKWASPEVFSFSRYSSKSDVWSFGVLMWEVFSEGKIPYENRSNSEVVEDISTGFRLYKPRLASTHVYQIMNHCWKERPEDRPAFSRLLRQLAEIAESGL
# assay-notes: Inhibition of a panel of kinases, in vitro HotSpot kinase assay: ITK
# Assay type: biochemical
# experimental-context: Table 15, C compounds; 1 μM ATP
experimental-endpoint: IC50

C=CC(=O)N1CCCC[C@@H](Nc2nnc(C(N)=O)c(Nc3ccc(C(C)C)cc3)n2)C1 :: ≤ 10 nM
C=CC(=O)N1CCC[C@@H](Nc2nnc(C(N)=O)c(Nc3cccc(-c4ncccn4)c3)n2)C1 :: 10 to 100 nM
C=CC(=O)N1CCC[C@H](N(C)c2nnc(C(N)=O)c(Nc3ccc(C(C)C)cc3)n2)C1 :: 10 to 100 nM
C=CC(=O)N1CCC[C@@H](Nc2nnc(C(N)=O)c(Nc3ccc(CN(C(=O)OCc4ccccc4)[C@@H](C)C(C)(C)C)cc3)n2)C1 :: 10 to 100 nM

Value wanted: IC50 (UniProt:Q08881) of entry C=CC(=O)N1CCC[C@@H](Nc2nnc(C(N)=O)c(Nc3ccc(C4(C#N)CC4)cc3)n2)C1
≤ 10 nM

Then this molecule: C=CC(=O)N1CCC[C@@H](Nc2nnc(C(N)=O)c(Nc3ccc(C4CCN(C5CCCC5)CC4)cc3)n2)C1
≤ 10 nM
